Cited source: ChEMBL document CHEMBL5724914

details: human gut metagenome, 24 h, 2 µM; also: call rule not given here
experimentalEndpoint: Bacterial Biotransformation

Examples with answers:
compound	Bacterial Biotransformation
Clc1cccc(Cl)c1N=C1NCCN1 [CLONIDINE]	Compound metabolized
Br.COc1ccc2c(c1)[C@]13CCCC[C@@H]1[C@H](C2)N(C)CC3.O [DEXTROMETHORPHAN HYDROBROMIDE]	Compound metabolized
CCOC(=O)[C@H](CCc1ccccc1)N[C@@H](C)C(=O)N1CCC[C@H]1C(=O)O.O=C(O)/C=C\C(=O)O [ENALAPRIL MALEATE]	Compound NOT metabolized
COc1cc(C(=O)NCc2ccc(OCCN(C)C)cc2)cc(OC)c1OC [TRIMETHOBENZAMIDE]	Compound NOT metabolized
CC(C)(C)N.CCC[C@H](N[C@@H](C)C(=O)N1[C@H](C(=O)O)C[C@@H]2CCCC[C@@H]21)C(=O)OCC [PERINDOPRIL ERBUMINE]	Compound metabolized
Cc1ccccc1C(OCCN(C)C)c1ccccc1.O=C(O)CC(O)(CC(=O)O)C(=O)O (stereo unspecified) [ORPHENADRINE CITRATE]	Compound NOT metabolized
CCOc1ccc2nc(S(N)(=O)=O)sc2c1 [ETHOXZOLAMIDE]	Compound NOT metabolized
COc1ccccc1OCCNCC(O)COc1cccc2[nH]c3ccccc3c12 (stereo unspecified) [CARVEDILOL]	Compound metabolized
CNCC[C@H](Oc1cccc2ccccc12)c1cccs1 [DULOXETINE]	Compound NOT metabolized
CC[C@H](C)C(=O)O[C@H]1CCC=C2C=C[C@H](C)[C@H](CC[C@@H]3C[C@@H](O)CC(=O)O3)[C@H]21 [MEVASTATIN]	Compound NOT metabolized

Name the reported Bacterial Biotransformation value associated with the compound COC(=O)[C@H](c1ccccc1Cl)N1CCc2sccc2C1.O=S(=O)(O)O [CLOPIDOGREL BISULFATE] Compound metabolized

Name the reported Bacterial Biotransformation value associated with the compound COc1cc2nc(N3CCN(C(=O)C4COc5ccccc5O4)CC3)nc(N)c2cc1OC.CS(=O)(=O)O (stereo unspecified) [DOXAZOSIN MESYLATE] Compound metabolized

Name the reported Bacterial Biotransformation value associated with the compound CN(C)C(=O)Oc1cc(OC(=O)N(C)C)cc(C(O)CNC(C)(C)C)c1 (stereo unspecified) [BAMBUTEROL] Compound NOT metabolized

Name the reported Bacterial Biotransformation value associated with the compound N[C@@H](Cc1ccc(N(CCCl)CCCl)cc1)C(=O)O Compound metabolized

Name the reported Bacterial Biotransformation value associated with the compound CC(C)C[C@H]1C(=O)N2CCC[C@H]2[C@]2(O)O[C@](NC(=O)[C@@H]3C=C4c5cccc6[nH]c(Br)c(c56)C[C@H]4N(C)C3)(C(C)C)C(=O)N12.CS(=O)(=O)O [BROMOCRIPTINE MESYLATE] Compound metabolized

----------
settings: human gut metagenome, 24 h, 2 µM
experimentalEndpoint: Bacterial Biotransformation

Examples with answers:
molecule	Bacterial Biotransformation
CC(C)c1nc(N(C)S(C)(=O)=O)nc(-c2ccc(F)cc2)c1/C=C/[C@@H](O)C[C@@H](O)CC(=O)[O-].CC(C)c1nc(N(C)S(C)(=O)=O)nc(-c2ccc(F)cc2)c1/C=C/[C@@H](O)C[C@@H](O)CC(=O)[O-].[Ca+2]	Compound NOT metabolized
CC(=O)OCC(CCn1cnc2cnc(N)nc21)COC(C)=O	Compound metabolized
COc1cc2nc(N3CCN(C(=O)C4CCCO4)CC3)nc(N)c2cc1OC (stereo not given)	Compound NOT metabolized
COc1ccc(Cc2nccc3cc(OC)c(OC)cc23)cc1OC	Compound metabolized

Continue with the next molecule.
Name the reported Bacterial Biotransformation value associated with the molecule CC[C@@]1(O)C(=O)OCc2c1cc1n(c2=O)Cc2cc3c(CN(C)C)c(O)ccc3nc2-1 Compound NOT metabolized
